- System: 485176-168-R4-J1-PDC spheroids with HUVEC/MSC, viability
- assay.name: Anticancer human tumor 485176-168-R4-J1-PDC patient-derived pancreatic adenocarcinoma cell line growth inhibition [GQUAD]
- experimental.setup: second compound 0.316 µM; first compound 0.00999 µM; active compounds read low
Property: viability, T/C; scope: individual compounds

Enter measured viability, T/C, system 485176-168-R4-J1-PDC spheroids with HUVEC/MSC, viability, for the compound shown: Cn1ncnc1[C@H]1c2n[nH]c(=O)c3cc(F)cc(c23)N[C@@H]1c1ccc(F)cc1 + Cc1[nH]c2ccc(F)cc2c1-c1nc2c3cccnc3c3ncccc3c2[nH]1
101%

Enter measured viability, T/C, system 485176-168-R4-J1-PDC spheroids with HUVEC/MSC, viability, for the compound shown: Cc1[nH]c2ccccc2c1CCNCc1ccc(/C=C/C(=O)NO)cc1 + CN(C)c1ccc(Nc2c3ccc(NC(=O)CCN4CCCC4)cc3nc3cc(NC(=O)CCN4CCCC4)ccc23)cc1
82.9%

Enter measured viability, T/C, system 485176-168-R4-J1-PDC spheroids with HUVEC/MSC, viability, for the compound shown: Cc1[nH]c2ccccc2c1CCNCc1ccc(/C=C/C(=O)NO)cc1 + Cc1[nH]c2ccc(F)cc2c1-c1nc2c3cccnc3c3ncccc3c2[nH]1
80%

* * *

- Test system: 485176-168-R4-J1-PDC spheroids with HUVEC/MSC, viability
- assay.name: Anticancer human tumor 485176-168-R4-J1-PDC cell line growth inhibition [GQUAD];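 also: spheroids exposed to compounds for seven days before readout; percent viability relative to DMSO vehicle control wells as 100%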
- experimental.setup: second compound 10 µM; first compound 3.16 µM; active compounds read low
parameter: viability, T/C (%)
Give just the number in %; leave the unit off.

Give the reported viability, T/C for this molecule. C=CCn1c(=O)c2cnc(Nc3ccc(N4CCN(C)CC4)cc3)nc2n1-c1cccc(C(C)(C)O)n1 + Cc1[nH]c2ccc(F)cc2c1-c1nc2c3cccnc3c3ncccc3c2[nH]1
5.54

More entries:
Give the reported viability, T/C for this molecule. C=CCn1c(=O)c2cnc(Nc3ccc(N4CCN(C)CC4)cc3)nc2n1-c1cccc(C(C)(C)O)n1 + Cc1cnc(CNC(=O)c2c(=O)c3ccc(N4CCCN(C)CC4)nc3n3c2sc2ccccc23)cn1
0.49

Give the reported viability, T/C for this molecule. Nc1ccn(C2OC(CO)C(O)C2(F)F)c(=O)n1 (stereo unspecified) + CN(C)c1ccc(Nc2c3ccc(NC(=O)CCN4CCCC4)cc3nc3cc(NC(=O)CCN4CCCC4)ccc23)cc1
11.1

* * *

- Test system: 485176-168-R4-J1-PDC spheroids with HUVEC/MSC, viability
- assay.name: Anticancer human tumor 485176-168-R4-J1-PDC cell line growth inhibition [GQUAD];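 also: spheroids exposed to compounds for seven days before readout; percent viability relative to DMSO vehicle control wells as 100%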
- experimental.setup: second compound 0.1 µM; first compound 0.316 µM; active compounds read low
parameter: viability, T/C

Give the reported viability, T/C for this compound. CC[C@@]1(O)C(=O)OCc2c1cc1n(c2=O)Cc2cc3c(CN(C)C)c(O)ccc3nc2-1 + Cc1cnc(CNC(=O)c2c(=O)c3ccc(N4CCCN(C)CC4)nc3n3c2sc2ccccc23)cn1
37.1%

Give the reported viability, T/C for this compound. C=CCn1c(=O)c2cnc(Nc3ccc(N4CCN(C)CC4)cc3)nc2n1-c1cccc(C(C)(C)O)n1 + CN(C)c1ccc(Nc2c3ccc(NC(=O)CCN4CCCC4)cc3nc3cc(NC(=O)CCN4CCCC4)ccc23)cc1
76%

Give the reported viability, T/C for this compound. COc1cccc2c1C(=O)c1c(O)c3c(c(O)c1C2=O)CC(O)(C(=O)CO)CC3OC1CC(N)C(O)C(C)O1 (stereo not drawn) + CN(C)c1ccc(Nc2c3ccc(NC(=O)CCN4CCCC4)cc3nc3cc(NC(=O)CCN4CCCC4)ccc23)cc1
49.2%

Give the reported viability, T/C for this compound. CCCS(=O)(=O)Nc1ccc(F)c(C(=O)c2c[nH]c3ncc(-c4ccc(Cl)cc4)cc23)c1F + CN(C)c1ccc(Nc2c3ccc(NC(=O)CCN4CCCC4)cc3nc3cc(NC(=O)CCN4CCCC4)ccc23)cc1
83.2%

Give the reported viability, T/C for this compound. Cn1ncnc1[C@H]1c2n[nH]c(=O)c3cc(F)cc(c23)N[C@@H]1c1ccc(F)cc1 + Cc1[nH]c2ccc(F)cc2c1-c1nc2c3cccnc3c3ncccc3c2[nH]1
99.5%

More entries:
Give the reported viability, T/C for this compound. COc1ccc([C@@H](O)c2cc(-c3ncnc4cc(N5CCOCC5)ccc34)c(F)cc2Cl)nn1 + CN(C)c1ccc(Nc2c3ccc(NC(=O)CCN4CCCC4)cc3nc3cc(NC(=O)CCN4CCCC4)ccc23)cc1
89.1%

Give the reported viability, T/C for this compound. COc1cc(C2c3cc4c(cc3C(OC3OC5COC(C)OC5C(O)C3O)C3COC(=O)C23)OCO4)cc(OC)c1O (stereo not drawn) + Cc1cnc(CNC(=O)c2c(=O)c3ccc(N4CCCN(C)CC4)nc3n3c2sc2ccccc23)cn1
40.6%

Give the reported viability, T/C for this compound. CC(C)(O)C1CCC(Nc2ccc3ncc(-c4cccc(C(F)(F)F)c4)n3n2)CC1 (stereo not drawn) + Cc1[nH]c2ccc(F)cc2c1-c1nc2c3cccnc3c3ncccc3c2[nH]1
86.8%

Give the reported viability, T/C for this compound. COc1ccc([C@@H](O)c2cc(-c3ncnc4cc(N5CCOCC5)ccc34)c(F)cc2Cl)nn1 + Cc1cnc(CNC(=O)c2c(=O)c3ccc(N4CCCN(C)CC4)nc3n3c2sc2ccccc23)cn1
45.4%

Give the reported viability, T/C for this compound. COc1ncnc(C2CC2)c1-c1ncc2cnn(Cc3ccc(-c4nc(C(F)(F)F)cn4C(C)C)cc3)c2n1 + Cc1cnc(CNC(=O)c2c(=O)c3ccc(N4CCCN(C)CC4)nc3n3c2sc2ccccc23)cn1
76.8%

Give the reported viability, T/C for this compound. O=C(c1cc(Cc2n[nH]c(=O)c3ccccc23)ccc1F)N1CCN(C(=O)C2CC2)CC1 + Cc1[nH]c2ccc(F)cc2c1-c1nc2c3cccnc3c3ncccc3c2[nH]1
90.3%

Give the reported viability, T/C for this compound. CCc1c2c(nc3ccc(O)cc13)-c1cc3c(c(=O)n1C2)COC(=O)[C@]3(O)CC + CN(C)c1ccc(Nc2c3ccc(NC(=O)CCN4CCCC4)cc3nc3cc(NC(=O)CCN4CCCC4)ccc23)cc1
5.98%

* * *

- Tested on: 485176-168-R4-J1-PDC spheroids with HUVEC/MSC, viability
- assay.name: Anticancer human tumor 485176-168-R4-J1-PDC cell line growth inhibition [GQUAD]; active = viability on the fitted dose curve at most 10% of control; inactive = the rest;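 also: spheroids exposed to compounds for seven days before readout; percent viability relative to DMSO vehicle control wells as 100%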
- experimental.setup: second compound 0.316 µM; first compound 3.16 µM
Select the correct class. Options are active, inactive and nothing else.

Before answering, review these 3 worked examples.
GET /call?item= Nc1ccn(C2OC(CO)C(O)C2(F)F)c(=O)n1 (stereo unspecified) + Cc1cnc(CNC(=O)c2c(=O)c3ccc(N4CCCN(C)CC4)nc3n3c2sc2ccccc23)cn1 returns the recorded outcome of this test.
inactive

GET /call?item= O=C(NO)c1cnc(N2CCN(S(=O)(=O)c3ccc4ccccc4c3)CC2)nc1 + CN(C)c1ccc(Nc2c3ccc(NC(=O)CCN4CCCC4)cc3nc3cc(NC(=O)CCN4CCCC4)ccc23)cc1 returns the recorded outcome of this test.
active

GET /call?item= Nc1ccn(C2OC(CO)C(O)C2(F)F)c(=O)n1 (stereo unspecified) + Cc1[nH]c2ccc(F)cc2c1-c1nc2c3cccnc3c3ncccc3c2[nH]1 returns the recorded outcome of this test.
inactive

More entries:
GET /call?item= O=c1[nH]cc(F)c(=O)[nH]1 + CN(C)c1ccc(Nc2c3ccc(NC(=O)CCN4CCCC4)cc3nc3cc(NC(=O)CCN4CCCC4)ccc23)cc1 returns the recorded outcome of this test.
inactive

GET /call?item= CC(C)(O)C1CCC(Nc2ccc3ncc(-c4cccc(C(F)(F)F)c4)n3n2)CC1 (stereo unspecified) + CN(C)c1ccc(Nc2c3ccc(NC(=O)CCN4CCCC4)cc3nc3cc(NC(=O)CCN4CCCC4)ccc23)cc1 returns the recorded outcome of this test.
inactive

GET /call?item= CC1COCCN1c1cc(C2(S(C)(=N)=O)CC2)nc(-c2ccnc3[nH]ccc23)n1 (stereo unspecified) + CN(C)c1ccc(Nc2c3ccc(NC(=O)CCN4CCCC4)cc3nc3cc(NC(=O)CCN4CCCC4)ccc23)cc1 returns the recorded outcome of this test.
inactive

* * *

- Tested on: 485176-168-R4-J1-PDC spheroids with HUVEC/MSC, viability
- assay.name: Anticancer human tumor 485176-168-R4-J1-PDC cell line growth inhibition [GQUAD]; active = viability on the fitted dose curve at most 10% of control; inactive = the rest;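 also: spheroids exposed to compounds for seven days before readout; percent viability relative to DMSO vehicle control wells as 100%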
- experimental.setup: second compound 0.1 µM; first compound 10 µM
Select the correct class. Options are True (active), False (inactive) and nothing else.

Before answering, review these 2 worked examples.
GET /call?item= CC(=O)O[C@H]1C(=O)[C@@]2(C)[C@H]([C@H](OC(=O)c3ccccc3)[C@]3(O)C[C@H](OC(=O)[C@H](O)[C@@H](NC(=O)c4ccccc4)c4ccccc4)C(C)=C1C3(C)C)[C@]1(OC(C)=O)CO[C@@H]1C[C@@H]2O + Cc1[nH]c2ccc(F)cc2c1-c1nc2c3cccnc3c3ncccc3c2[nH]1 returns the recorded outcome of this test.
False

GET /call?item= CCCS(=O)(=O)Nc1ccc(F)c(C(=O)c2c[nH]c3ncc(-c4ccc(Cl)cc4)cc23)c1F + Cc1[nH]c2ccc(F)cc2c1-c1nc2c3cccnc3c3ncccc3c2[nH]1 returns the recorded outcome of this test.
False

Below: the item to evaluate.
GET /call?item= CC1COCCN1c1cc(C2(O)CC3CCC(C2)O3)c2cnn(-c3ccn[nH]3)c2n1 (stereo not drawn) + Cc1cnc(CNC(=O)c2c(=O)c3ccc(N4CCCN(C)CC4)nc3n3c2sc2ccccc23)cn1 returns the recorded outcome of this test.
True
